Value source: ChEMBL document CHEMBL5241057

- Test system: Matrix metalloproteinase-9 (Homo sapiens, UniProt P14780)
- Sequence (P14780 whole entry): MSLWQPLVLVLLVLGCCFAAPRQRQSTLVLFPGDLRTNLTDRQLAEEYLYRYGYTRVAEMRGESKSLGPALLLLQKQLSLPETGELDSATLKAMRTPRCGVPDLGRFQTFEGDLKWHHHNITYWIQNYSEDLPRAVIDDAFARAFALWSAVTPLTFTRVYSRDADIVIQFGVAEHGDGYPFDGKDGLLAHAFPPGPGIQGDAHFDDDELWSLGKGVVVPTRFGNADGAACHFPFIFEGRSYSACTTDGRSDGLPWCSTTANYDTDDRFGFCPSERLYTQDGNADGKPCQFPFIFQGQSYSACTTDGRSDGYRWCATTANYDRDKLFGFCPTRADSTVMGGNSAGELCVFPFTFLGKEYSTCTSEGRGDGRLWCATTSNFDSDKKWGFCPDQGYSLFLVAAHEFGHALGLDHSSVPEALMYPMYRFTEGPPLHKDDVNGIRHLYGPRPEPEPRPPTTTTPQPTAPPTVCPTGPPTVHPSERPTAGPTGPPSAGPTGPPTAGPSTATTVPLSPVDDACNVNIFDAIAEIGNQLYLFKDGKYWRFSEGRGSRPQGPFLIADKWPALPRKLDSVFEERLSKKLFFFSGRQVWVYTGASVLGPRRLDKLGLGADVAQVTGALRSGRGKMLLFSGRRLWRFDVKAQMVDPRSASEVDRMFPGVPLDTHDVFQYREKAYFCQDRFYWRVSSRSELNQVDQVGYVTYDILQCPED
- Test name: Inhibition of MMP9 (unknown origin)
pIC50: −log10 of the molar value.
Quantity: pIC50

Example entries and their recorded answers appear below.
Record `Cc1ccc(-c2cc(-c3ccc(S(=O)(=O)N[C@H](C(=O)O)C(C)C)cc3)no2)s1` : what is its pIC50 with Matrix metalloproteinase-9 (Homo sapiens, UniProt P14780)?
9.47

Record C[C@@H]1O[C@@H](O[C@H]2[C@H](O[C@H]3CC[C@@]4(C)C(CC[C@]5(C)C4CC=C4C6CC(C)(C)CC[C@]6(C(=O)O)CC[C@]45C)[C@]3(C)COC(=O)[C@]3(O)C[C@@H](O)[C@@H](O)[C@H](OC(=O)/C=C/c4ccc(O)c(O)c4)C3)OC[C@H](O)[C@@H]2O)[C@H](O)[C@H](O)[C@H]1O (stereo not given in full) : what is its pIC50 with Matrix metalloproteinase-9 (Homo sapiens, UniProt P14780)?
5.15

a = CCc1ccc(-c2cc(-c3ccc(S(=O)(=O)N[C@H](C(=O)O)C(C)C)cc3)no2)s1
b = CN(C)c1ccc(-c2cn(-c3ccc(S(=O)(=O)NC(Cc4ccccc4)C(=O)NO)cc3)nn2)cc1 (stereo not given)
Parameter check: reported pIC50 is higher for which label, a or b ? Lab note: record the label of whichever item you select.
a
(a: 9.54, b: 9.00)
